# Test system: ACHN
# PROTOCOL_TEXT: NCI tumour cell line growth inhibition, 48 h
Calls of active or inactive are those of the source. Rule as the data show it: active = GI50 up to about 1.1 µM and inactive = higher.
RECORDED_ENDPOINT: GI50

Reference set, count: 3
> print(dat)
                            compound.string          test.result
1  CN(C)c1ccc(C(=C2C=CC(=[N+](C)C)C=C2)c2c(O)c(S(=O)(=O)[O-])cc3cc(S(=O)(=O)O)ccc23)cc1  > 100 µM (inactive)
2  O=S(=O)(c1ccccc1)[C@H]1[C@@H]2O[C@@H]2C[C@@H]1O  > 100 µM (inactive)
3  O=C(NC(=O)c1ccccc1[N+](=O)[O-])Nc1ccc(Oc2ncc(Br)cn2)c(Cl)c1   0.0508 µM (active)

Quick batch: GI50 for everything below.
1. C=C=C[P+](c1ccccc1)(c1ccccc1)c1ccccc1
2. COP(=O)(OC)c1ccc(NCc2cc(O)ccc2O)cc1

Return:
14.5 µM (inactive)
18.3 µM (inactive)

====

# Tested on: MDA-MB-231
# PROTOCOL_TEXT: NCI tumour cell line growth inhibition, 48 h
The source made the active and inactive calls. No stated cut-off is given here; in the data, active = GI50 up to about 1.1 µM and inactive = higher.
Exercise: state measured GI50 for each of the compounds provided.

Reference set, count: 4
> print(dat)
                                   compound  study.target         test.result
1  C[C@]12CC[C@@H]3c4ccc(O)cc4CC[C@H]3[C@@H]1C/C(=C\c1ccncc1)C2=O    MDA-MB-231  41.4 µM (inactive)
2  O=C(Nc1ccc2cc3ccccc3cc2c1)c1cc2c(cc1Cl)Sc1nccn1S2(=O)=O    MDA-MB-231  8.97 µM (inactive)
3  CC(C)CC(Nc1c(O)ccc2ccccc12)C(=O)O (stereo not given)    MDA-MB-231  25.4 µM (inactive)
4              O=c1oc2ccccc2c2nc3ccccc3cc12    MDA-MB-231    23 µM (inactive)

As a next step, examine the compound that follows.
Enquiry: State the recorded GI50 for this entry: COC(=O)C1C2C=CC(C2)N1S(=O)(=O)c1ccccc1 (stereo not given)
Return: > 100 µM (inactive)

====

# System: HCT-116
# PROTOCOL_TEXT: NCI tumour cell line growth inhibition, 48 h
Calls of active or inactive are those of the source. Cut-off read from the data, not from the text of the source: active = GI50 up to about 1.1 µM and inactive = higher.
RECORDED_ENDPOINT: GI50

> print(dat)
                                   compound  recorded.endpoint          test.result
1                       N#C/C(N)=N/c1ccccc1               GI50  > 100 µM (inactive)
2  Cc1ccc2[nH]c(Sc3c([N+](=O)[O-])ncn3C)nc2c1               GI50   21.1 µM (inactive)
3    CC1(C)CS(=O)(=O)CC(C)(C)C(=N/N)/C1=N\N               GI50  > 100 µM (inactive)

Quick batch: GI50 for everything below.
1. CCOC(=O)c1nc2cc(C(F)(F)F)ccc2nc1Nc1ccc(Cl)c(Cl)c1
2. Cc1cc2c(c(C#N)c1C)NC(=O)C(CC(=O)O)C2=O (stereo unspecified)

Return:
1: 69.7 µM (inactive); 2: > 100 µM (inactive)

====

# Test system: NCI-H460
# PROTOCOL_TEXT: NCI tumour cell line growth inhibition, 48 h
Calls of active or inactive are those of the source. Rule as the data show it: active = GI50 up to about 1.1 µM and inactive = higher.
Hi! Could you answer with just one of these? T = active, F = inactive

> print(dat)
                                   molecule  group.label
1  C=C1c2ccccc2Oc2nc3nc(N)c(C#N)c(N)c3c(N)c21            F
2              N=c1oc2ccc3ccccc3c2cc1C(N)=O            F
3  O=C(Cc1ccccc1)NN1C(=O)C(Cl)C1c1ccc([N+](=O)[O-])cc1 (centres undefined)            F
4  COC(=O)C(=O)C1(CCC(C)=O)c2ccccc2-c2c(C)ccc(C)c21 (centres undefined)            F
5            Cc1cccc(/C=N\NC(=S)N2CCCCC2)n1            T

Enquiry: // param item: CC(C)C(N)=O [ISOBUTYRAMIDE] ; yields the recorded call
Return: F

Enquiry: // param item: CCOC(=O)CCSc1nc2ccc(I)cc2c(=O)n1Cc1ccccc1 ; yields the recorded call
Return: F

Enquiry: // param item: CCCN/C(N)=N/C#N ; yields the recorded call
Return: F

Enquiry: // param item: COc1cc(C2C(C(=O)O)=C(COC(C)=O)Oc3cc4c(cc32)OCO4)cc(OC)c1OC (centres undefined) ; yields the recorded call
Return: F

Enquiry: // param item: CN(C)c1ccc(C(=C2C=CC(=[N+](C)C)C=C2)c2c(O)c(S(=O)(=O)[O-])cc3cc(S(=O)(=O)O)ccc23)cc1 ; yields the recorded call
Return: F

Enquiry: // param item: CC(C)N(CC(=O)O)CC(=O)O ; yields the recorded call
Return: F

Enquiry: // param item: CCN(CC)c1ccc2cc3ccc(N(CC)CC)cc3[o+]c2c1 ; yields the recorded call
Return: F

Where these numbers come from: ChEMBL document CHEMBL1201862
